Assay: anatomic pathology (histopathology of heart and kidney) in mice
Format: in vivo
Details: CD-1 mice, 20 mg/kg intravenously daily for 9 days, necropsy day 10, microscopic histopathology
Numbered stars: 1 amine (or outer) side, 2 acyl side, 3 side chain; on linkers, the order of the positions; unused ones are H or OH. Square brackets hold non-standard residues; d marks the D form. Peptide text beside a SMILES is read from it. ξ: configuration not given here. X1 = N=C1NCC(C(O)C(N[*:1])C(=O)[*:2])N1C1OC(CO)C(O)C(O)C1O; ξEnduracididine(βξ-OH,4'ξ) = N=C1NCC(C(O)C(N)C(=O)O)N1; Cha = N[CH](CC1CCCCC1)C(=O)O
test_readout: Anatomical Pathology (Day 10), Kidney

CC(c1ccccc1)C1NC(=O)CNC(=O)C(CO)NC(=O)C(C(O)C2CN(CCCCCCCCCCC(=O)O)C(=N)N2C2OC(CO)C(O)C(O)C2O)NC(=O)C(C(O)C2CNC(=N)N2)NC(=O)C(Cc2ccc(OC3OC(CO)C(OC4OC(CO)C(O)C(O)C4O)C(O)C3O)cc2)NC1=O (centres unmarked) : ++
CC(c1ccccc1)C1NC(=O)CNC(=O)C(CO)NC(=O)C(C(O)C2CN(Cc3ccc(-c4ccccc4)cc3)C(=N)N2C2OC(CO)C(O)C(O)C2O)NC(=O)C(C(O)C2CNC(=N)N2)NC(=O)C(Cc2ccc(OC3OC(CO)C(OC4OC(CO)C(O)C(O)C4O)C(O)C3O)cc2)NC1=O (centres unmarked) [Example 66a] : ++
COc1ccc2cc(COC3C(CO)OC(OC4C(CO)OC(Oc5ccc(CC6NC(=O)C(C(C)c7ccccc7)NC(=O)CNC(=O)C(CO)NC(=O)C(CC7CNC(=N)N7C7OC(CO)C(O)C(O)C7O)NC(=O)C(CC7CNC(=N)N7)NC6=O)cc5)C(O)C4O)C(O)C3O)ccc2c1 (centres unmarked) [Example 245a] : +++
CC(c1ccccc1)C1NC(=O)CNC(=O)C(CO)NC(=O)C(C(O)C2CN(Cc3ccc(C(C)(C)C)cc3)C(=N)N2C2OC(CO)C(O)C(O)C2O)NC(=O)C(C(O)C2CNC(=N)N2)NC(=O)C(Cc2ccc(OC3OC(CO)C(OC4OC5COC6(OC5C(O)C4O)C4CC5CC(C4)CC6C5)C(O)C3O)cc2)NC1=O (centres unmarked) : 0

Consider the following items and state reported Anatomical Pathology (Day 10), Kidney for each.
1. N=C1NCC(C(O)C2NC(=O)C(CC3CCCCC3)NC(=O)C(CC3CCCCC3)NC(=O)CNC(=O)C(CO)NC(=O)C(C(O)C3CNC(=N)N3C3OC(CO)C(O)C(O)C3O)NC2=O)N1 (stereo not drawn) [Example 52] (cyclo(G[Cha][Cha][ξEnduracididine(βξ-OH,4'ξ)][X1]S); configuration not given here)
2. N=C1NCC(C(O)C2NC(=O)C(Cc3ccc(OC4OC(CO)C(OC5OC6COC7(OC6C(O)C5O)C5CC6CC(C5)CC7C6)C(O)C4O)cc3)NC(=O)C(Cc3ccccc3)NC(=O)CNC(=O)C(CO)NC(=O)C(C(O)C3CNC(=N)N3C3OC(CO)C(O)C(O)C3O)NC2=O)N1 (centres unmarked)
3. CC(c1ccccc1)C1NC(=O)CNC(=O)C(CO)NC(=O)C(C(O)C2CNC(=N)N2C2OC(CO)C(O)C(O)C2O)NC(=O)C(C(O)C2CNC(=N)N2)NC(=O)C(Cc2ccc(OC3OC(CO)C(OC4OC5COC6(OC5C(O)C4O)C4CC5CC(C4)CC6C5)C(O)C3O)cc2)NC1=O (centres unmarked)
4. CC(c1ccccc1)C1NC(=O)CNC(=O)C(CO)NC(=O)C(C(O)C2CN(Cc3ccc4ccccc4c3)C(=N)N2C2OC(CO)C(O)C(O)C2O)NC(=O)C(C(O)C2CNC(=N)N2)NC(=O)C(Cc2ccc(OC3OC(CO)C(OC4OC5COC6(OC5C(O)C4O)C4CC5CC(C4)CC6C5)C(O)C3O)cc2)NC1=O (centres unmarked)
5. COc1ccc2cc(COCC3OC(OC4C(CO)OC(Oc5ccc(CC6NC(=O)C(C(C)c7ccccc7)NC(=O)CNC(=O)C(CO)NC(=O)C(CC7CNC(=N)N7C7OC(CO)C(O)C(O)C7O)NC(=O)C(CC7CNC(=N)N7)NC6=O)cc5)C(O)C4O)C(O)C(O)C3O)ccc2c1 (centres unmarked)
6. CC(C)CC(=O)OC1C(OC2C(CO)OC(Oc3ccc(CC4NC(=O)C(C(C)c5ccccc5)NC(=O)CNC(=O)C(CO)NC(=O)C(CC5CNC(=N)N5C5OC(CO)C(O)C(O)C5O)NC(=O)C(CC5CNC(=N)N5)NC4=O)cc3)C(O)C2O)OC(CO)C(O)C1O (centres unmarked) [Example 277b]
7. CN=C1N(C)CC(C(O)C2NC(=O)C(Cc3ccc(OC4OC(CO)C(OC5OC6COC7(OC6C(O)C5O)C5CC6CC(C5)CC7C6)C(O)C4O)cc3)NC(=O)C(C(C)c3ccccc3)NC(=O)CNC(=O)C(CO)NC(=O)C(C(O)C3CN(C)C(=NC)N3C3OC(CO)C(O)C(O)C3O)NC2=O)N1C (centres unmarked)
8. CC(c1ccccc1)C1NC(=O)CNC(=O)C(CO)NC(=O)C(C(O)C2CNC(=NCc3ccccc3)N2C2OC(CO)C(O)C(O)C2O)NC(=O)C(C(O)C2CNC(=N)N2)NC(=O)C(Cc2ccc(OC3OC(CO)C(OC4OC5COC6(OC5C(O)C4O)C4CC5CC(C4)CC6C5)C(O)C3O)cc2)NC1=O (centres unmarked)

Marked response:
["+++", "+++", "+++", "++", "+++", "+", 0, "++"]

List the reported Anatomical Pathology (Day 10), Kidney of each molecule below.
1. CCCCCCCN1CC(C(O)C2NC(=O)C(C(O)C3CNC(=N)N3)NC(=O)C(Cc3ccc(OC4OC(CO)C(OC5OC(CO)C(O)C(O)C5O)C(O)C4O)cc3)NC(=O)C(C(C)c3ccccc3)NC(=O)CNC(=O)C(CO)NC2=O)N(C2OC(CO)C(O)C(O)C2O)C1=N (centres unmarked)
2. CN=C1N(C)CC(C(O)C2NC(=O)C(Cc3ccc(OC4OC(CO)C(OC5OC(CO)C(O)C(O)C5O)C(O)C4O)cc3)NC(=O)C(C(C)c3ccccc3)NC(=O)CNC(=O)C(CO)NC(=O)C(C(O)C3CN(C)C(=NC)N3C3OC(CO)C(O)C(O)C3O)NC2=O)N1C (centres unmarked)

Marked response:
0
0

---

Test system: Escherichia coli
Test: in vitro antibacterial evaluation, MIC by broth dilution
Type: cell-based
Conditions: strain GC 4560, 18 hours at 35° C.
Would you kindly list MIC Escherichia coli (GC 4560) for each of these compounds?
Numbers only, in µg/mL.

CC(c1ccccc1)C1NC(=O)CNC(=O)C(CO)NC(=O)C(C(O)C2CNC(=N)N2C2OC(CO)C(O)C(O)C2O)NC(=O)C(C(O)C2CNC(=N)N2)NC(=O)C(Cc2ccc(OC3OC(CO)C(OC4OC5COC(c6ccc(-c7ccc(Cl)cc7)cc6)OC5C(O)C4O)C(O)C3O)cc2)NC1=O (stereo not shown) : 16
COc1ccc(Oc2cccc(C3OCC4OC(OC5C(CO)OC(Oc6ccc(CC7NC(=O)C(C(C)c8ccccc8)NC(=O)CNC(=O)C(CO)NC(=O)C(C(O)C8CNC(=N)N8C8OC(CO)C(O)C(O)C8O)NC(=O)C(C(O)C8CNC(=N)N8)NC7=O)cc6)C(O)C5O)C(O)C(O)C4O3)c2)cc1 (stereo not shown) : 2
COc1cc(C2OCC3OC(OC4C(CO)OC(Oc5ccc(CC6NC(=O)C(C(C)c7ccccc7)NC(=O)CNC(=O)C(CO)NC(=O)C(C(O)C7CNC(=N)N7C7OC(CO)C(O)C(O)C7O)NC(=O)C(C(O)C7CNC(=N)N7)NC6=O)cc5)C(O)C4O)C(O)C(O)C3O2)cc([N+](=O)[O-])c1O (stereo not shown) : 8

Provide MIC Escherichia coli (GC 4560) values for the following items, in order.
1. COc1cccc(C2OC3C(OC4C(CO)OC(Oc5ccc(CC6NC(=O)C(C(C)c7ccccc7)NC(=O)CNC(=O)C(CO)NC(=O)C(C(O)C7CNC(=N)N7C7OC(CO)C(O)C(O)C7O)NC(=O)C(C(O)C7CNC(=N)N7)NC6=O)cc5)C(O)C4O)OC(CO)C(O)C3O2)c1 (single isomer, unassigned) [Example 137a]
2. COc1cc(OC)cc(C2OC3C(OC4C(CO)OC(Oc5ccc(CC6NC(=O)C(C(C)c7ccccc7)NC(=O)CNC(=O)C(CO)NC(=O)C(C(O)C7CNC(=N)N7C7OC(CO)C(O)C(O)C7O)NC(=O)C(C(O)C7CNC(=N)N7)NC6=O)cc5)C(O)C4O)OC(CO)C(O)C3O2)c1 (stereo not shown) [Example 150a]
3. Cc1cc(C2OCC3OC(OC4C(CO)OC(Oc5ccc(CC6NC(=O)C(C(C)c7ccccc7)NC(=O)CNC(=O)C(CO)NC(=O)C(C(O)C7CNC(=N)N7C7OC(CO)C(O)C(O)C7O)NC(=O)C(C(O)C7CNC(=N)N7)NC6=O)cc5)C(O)C4O)C(O)C(O)C3O2)ccc1[N+](=O)[O-] (stereo not shown)

Marked response:
1. 8
2. 16
3. 2
